pKi values, listed per item
molecular target: TM287/288 (Thermotoga maritima, UniProt Q9WYC3+Q9WYC4, C28S/C496S/C519S/C558S/C73S); assay: Inhibition of ATPase activity of TM287/288 by vanadate and nucleotides; assay type: biochemical; conditions: TM287/288, 25°C; calculated from IC50 and Km; read-out: Ki
Conceptually, pKi converts a concentration in mol/L into minus its log10.

Nc1ncnc2c1ncn2[C@@H]1O[C@H](COP(=O)(O)OP(=O)(O)NP(=O)(O)O)[C@@H](O)[C@H]1O [AMP-PNP] :: 5.93

Read the next record carefully.
State its pKi: Nc1ncnc2c1ncn2[C@@H]1O[C@H](COP(=O)(O)OP(=O)(O)O)[C@@H](O)[C@H]1O [ADP]
5.48

====

IF frac values, listed per item
system: TM287/288; experiment: DEER two-Gaussian fit of IF/OF populations, wildtype TM287/288; parameters: species or system Thermotoga maritima; conditions: spin-labeled pair 131^TM288-248^TM288 WT, estimated errors 10%
The response must be a number in % with no trailing unit.

State its IF frac: `Nc1ncnc2c1ncn2[C@@H]1O[C@H](CO[P@](=O)(O)O[P@](=O)(O)O[P@@](=O)(O)S)[C@@H](O)[C@H]1O`
72.9

====

target: TM287/288 (Thermotoga maritima, UniProt Q9WYC3+Q9WYC4, C28S/C496S/C519S/C558S/C73S); assay: Inhibition of ATPase activity of TM287/288 by vanadate and nucleotides; type: biochemical; details: TM287/288, 50°C; calculated from IC50 and Km; read-out: Ki
parameter: Ki (nM)
The response must be a number in nM with no trailing unit.

Nc1ncnc2c1ncn2[C@@H]1O[C@H](COP(=O)(O)OP(=O)(O)NP(=O)(O)O)[C@@H](O)[C@H]1O [AMP-PNP] :: 246
[Na+].[Na+].[Na+].[O]=[V]([O-])([O-])[O-] [Vanadate, sodium orthovanadate] :: 75.1

State its Ki: Nc1ncnc2c1ncn2[C@@H]1O[C@H](COP(=O)(O)OP(=O)(O)O)[C@@H](O)[C@H]1O [ADP]
10400

====

biological target: TM287/288 (Thermotoga maritima, UniProt Q9WYC3+Q9WYC4, C28S/C496S/C519S/C558S/C73S); assay: Inhibition of ATPase activity of TM287/288 by vanadate and nucleotides; type: biochemical; details: IC50, TM287/288, 50°C, 500 µM ATP
parameter: IC50 (µM)
The response must be a number in µM with no trailing unit.

State its IC50: Nc1ncnc2c1ncn2[C@@H]1O[C@H](CO[P@](=O)(O)O[P@](=O)(O)O[P@@](=O)(O)S)[C@@H](O)[C@H]1O [ATPγS]
2.86

====

target: TM287/288 (Thermotoga maritima, UniProt Q9WYC3+Q9WYC4, C28S/C496S/C519S/C558S/C73S); assay: Inhibition of ATPase activity of TM287/288 by vanadate and nucleotides; format: biochemical; details: TM287/288, 25°C, 500 µM ATP; read-out: IC50
pIC50 values, listed per item
Conceptually, pIC50 converts a concentration in mol/L into minus its log10.

Nc1ncnc2c1ncn2[C@@H]1O[C@H](COP(=O)(O)OP(=O)(O)NP(=O)(O)O)[C@@H](O)[C@H]1O :: 3.75

Read the next record carefully.
Tell me pIC50 of `Nc1ncnc2c1ncn2[C@@H]1O[C@H](COP(=O)(O)OP(=O)(O)O)[C@@H](O)[C@H]1O` when tested on TM287/288 (Thermotoga maritima, UniProt Q9WYC3+Q9WYC4, C28S/C496S/C519S/C558S/C73S).
3.30
